Test system: Feline herpes virus
Assay: Broad spectrum antiviral activity, CRFK cells
Assay type: cell-based
quantity-name: IC50

compound: Oc1cc(O)cc(/C=C/c2ccc(O)c(O)c2)c1 [piceatannol, trans-3,3′,4,5′-tetrahydroxystilbene]
result: > 100 µM

---

Tested on: Coxsackie virus B4
Assay: Broad spectrum antiviral activity, HeLa cells
Assay type: cell-based
Details: Enterovirus B
pIC50: −log10 of the molar value.

compound: Oc1cc(O)cc(/C=C/c2ccc(O)c(O)c2)c1 [piceatannol, trans-3,3′,4,5′-tetrahydroxystilbene]
pIC50: < 4.00

---

Tested on: HIV-1 IIIB
Assay: microbe, parasite or virus in culture
Conditions: Human immunodeficiency virus 1, IIIB, PBMC, 168 h, read-out: IC50 HIV-1 IIIB
quantity-name: IC50 (µM)

compound: Oc1cc(O)cc(/C=C/c2ccc(O)c(O)c2)c1 [piceatannol, trans-3,3′,4,5′-tetrahydroxystilbene]
numeric-value: 24.2

---

System: Vesicular stomatitis virus
Assay: microbe, parasite or virus in culture
Assay type: cell-based
Conditions: Vesicular stomatitis virus, U-87 MG
pIC50: −log10 of the molar value.

molecule: Oc1cc(O)cc(/C=C/c2ccc(O)c(O)c2)c1 [piceatannol, trans-3,3′,4,5′-tetrahydroxystilbene]
tested-on: Vesicular stomatitis virus
pIC50: 4.10

---

Tested on: Herpes simplex virus-1 (KOS)
Assay: Broad spectrum antiviral activity, HEL cells
Format: cell-based
pIC50: −log10 of the molar value.

compound: Oc1cc(O)cc(/C=C/c2ccc(O)c(O)c2)c1 [piceatannol, trans-3,3′,4,5′-tetrahydroxystilbene]
pIC50: 4.32

---

Test system: non-B HIV-1 primary clinical isolate #2
Experiment: microbe, parasite or virus in culture
Details: Human immunodeficiency virus 1, PBMC, 168 h, read-out: IC50 Clinical isolate #2
pIC50: −log10 of the molar value.
Recorded pIC50 for the following compounds

compound: Cc1cn([C@H]2C[C@H](N=[N+]=[N-])[C@@H](CO)O2)c(=O)[nH]c1=O
pIC50: < 6.00

compound: O=C1Nc2ccc(Cl)cc2[C@@](C#CC2CC2)(C(F)(F)F)O1
pIC50: < 8.00

---

Tested on: Yellow fever virus
Assay: microbe, parasite or virus in culture
Type: cell-based
Conditions: Vero

compound: Oc1cc(O)cc(/C=C/c2ccc(O)c(O)c2)c1 [piceatannol, trans-3,3′,4,5′-tetrahydroxystilbene]
IC50: > 100 µM

---

System: Reovirus-1
Assay: Broad spectrum antiviral activity, vero cells
Format: cell-based
pIC50: −log10 of the molar value.

molecule: Oc1cc(O)cc(/C=C/c2ccc(O)c(O)c2)c1 [piceatannol, trans-3,3′,4,5′-tetrahydroxystilbene]
tested-on: Reovirus-1
pIC50: < 4.00

---

System: Influenza A/H3N2 A/HK/7/87
Assay: Broad spectrum antiviral activity, MDCK cells
Type: cell-based
Conditions: Influenza A virus
quantity-name: IC50

compound: Oc1cc(O)cc(/C=C/c2ccc(O)c(O)c2)c1 [piceatannol, trans-3,3′,4,5′-tetrahydroxystilbene]
result: > 100 µM

---

Test: Cytotoxicity of piceatannol analogues

compound: O=c1cc(-c2ccc(O)cc2O)oc2cc(O)cc(O)c12 [Compound 15, norartocarpetin]
CC50: > 500 µM
